# Tested on: HOP-92 NSCLC
# protocol: NCI-60 one-dose screen, 48 h (100 = growth as untreated, 0 = no growth, -100 = all killed)
# conditions: 10 µM unless noted
Compounds without any hit were thinned out: in the full panel of roughly 83,000, 20% have a hit. Calls of active or inactive are those of the source. How the source made its calls: active means growth percent below 10; inactive means the rest.

{"molecule": "COc1c(B(O)O)cccc1-c1nc2c(F)cc3n[nH]c(C)c3c2c2c1CCCC2", "growth": "24.7% (inactive)"}
{"molecule": "O=C(/C=C/c1cccc([N+](=O)[O-])c1)c1ccc(Nc2nc(N3CCCCC3)nc(N3CCCCC3)n2)cc1", "growth": "102% (inactive)"}
{"molecule": "Clc1ncnc2scc(C3COc4ccccc4O3)c12 (stereo unspecified)", "growth": "78.9% (inactive)"}
{"molecule": "COc1cccc(NC(=O)[C@H](C(C)C)n2c(=O)[nH]c3ccccc3c2=O)c1", "growth": "110% (inactive)"}
{"molecule": "NNC(=O)Cc1ccccc1", "growth": "-17.8% (active)"}
{"molecule": "COc1ccc(C(=O)C(C#N)c2cc(OC)c(OC)c(OC)c2)cc1 (stereo unspecified)", "growth": "83.6% (inactive)"}
{"molecule": "COc1ccc(NC(=O)/C=C/c2ccc(Cl)c(Cl)c2)cn1", "growth": "87.1% (inactive)"}
{"molecule": "CCOCC(O)(c1ccc(Cl)cc1)c1ccc(Cl)cc1", "growth": "107% (inactive)"}
{"molecule": "COC(=O)c1ccc(NC(N)=NCCC(C)(C)c2ccc(C(F)(F)F)cc2)nc1", "growth": "39% (inactive)"}
{"molecule": "C=CC[C@]1(O)CC[C@H]2[C@@H]3CCc4cc(O)ccc4[C@H]3CC[C@@]21C", "growth": "115% (inactive)"}
{"molecule": "O=C(C(=O)c1cccnc1)c1cccnc1", "growth": "103% (inactive)"}

Attribution: PubChem BioAssay (NCI)
